# ASSAYED SYSTEM: T1, human IL-23 (human, UniProt P29460 23-328; Q9NPF7 20-189)
# T1 construct: Recombinant (Ebioscience); HIS-tagged in flow cytometry, biotinylated in some assays; also called hIL-23; rhIL-23
# T1 sequence 1: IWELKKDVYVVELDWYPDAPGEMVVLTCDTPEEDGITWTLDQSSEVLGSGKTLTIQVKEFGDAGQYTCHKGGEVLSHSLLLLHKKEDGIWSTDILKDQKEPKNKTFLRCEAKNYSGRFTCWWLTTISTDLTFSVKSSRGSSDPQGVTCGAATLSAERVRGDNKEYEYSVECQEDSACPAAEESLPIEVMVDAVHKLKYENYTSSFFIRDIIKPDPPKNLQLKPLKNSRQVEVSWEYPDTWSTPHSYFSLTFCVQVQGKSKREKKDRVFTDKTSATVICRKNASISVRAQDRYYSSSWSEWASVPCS
# T1 sequence 2: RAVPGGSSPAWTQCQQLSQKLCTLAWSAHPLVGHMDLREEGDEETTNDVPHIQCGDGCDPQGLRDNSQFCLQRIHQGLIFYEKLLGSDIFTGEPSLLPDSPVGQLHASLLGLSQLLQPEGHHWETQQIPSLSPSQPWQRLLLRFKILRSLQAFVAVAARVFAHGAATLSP
# ASSAY PROTOCOL: SPR, purified scFv captured via FLAG
MEASURE: pKd
Keep it numeric: pKd is minus log10 of the concentration in mol/L.

Q: // query pKd value for entry scFv CR-B1 (scFv, scFv-80 variant: VH D85E; not shown: proprietary C-terminal FLAG tag) scFv: QVQLVQSGAEVKKPGASVKVSCKASGYTFTDYYLHWVRQAPGQGLEWMGWIDPENGDTEYAPKFQGRVTMTTDTSTSTAYMELRSLRSEDTAVYYCNANKELRYFDVWGQGTMVTVSSGGGGSGGGGSGGGGSEIVMTQSPATLSVSPGERATLSCRASQSISINLHWYQQKPGQAPRLLIYFASQSISGIPARFSGSGSGTEFTLTISSLQSEDFAVYYCQQSNSFPLTFGGGTKVEIKR
A: 9.89

Q: // query pKd value for entry scFv AQ-G10 (scFv, scFv-80 variant: VH K12E, R66G; not shown: proprietary C-terminal FLAG tag) scFv: QVQLVQSGAEVEKPGASVKVSCKASGYTFTDYYLHWVRQAPGQGLEWMGWIDPENGDTEYAPKFQGGVTMTTDTSTSTAYMELRSLRSDDTAVYYCNANKELRYFDVWGQGTMVTVSSGGGGSGGGGSGGGGSEIVMTQSPATLSVSPGERATLSCRASQSISINLHWYQQKPGQAPRLLIYFASQSISGIPARFSGSGSGTEFTLTISSLQSEDFAVYYCQQSNSFPLTFGGGTKVEIKR
A: 9.77
